Please go through the items and note down their kon.
Molecular target: VEGF (R&D systems, Minneapolis, Minn.) (UniProt P15692-4 27-191, limits assumed)
Sequence (P15692 other isoform, or with tags, fused parts or gaps limits assumed): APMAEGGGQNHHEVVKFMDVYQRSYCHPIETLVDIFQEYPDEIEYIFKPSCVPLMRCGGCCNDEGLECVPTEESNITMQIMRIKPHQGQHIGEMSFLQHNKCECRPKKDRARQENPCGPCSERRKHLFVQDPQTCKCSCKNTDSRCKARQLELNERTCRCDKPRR
Assay: BIAcore SPR

Request: Look up kon for this binder: 93 (antibody, human IgG1, V domains shown) VH: EVQLVESGGGLVQPGGSLRLSCAASGYTFTNYGMNWVRQAPGKGLEWVGWINTYTGEPTYAADFKRRFTFSLDTSKSTAYLQMNSLRAEDTAVYYCAKYPEYYGSSHWYFDVWGQGTLVTVSS VL: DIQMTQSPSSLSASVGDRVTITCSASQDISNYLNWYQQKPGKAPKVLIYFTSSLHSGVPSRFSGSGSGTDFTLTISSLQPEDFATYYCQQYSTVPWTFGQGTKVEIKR
Result: 292000 M⁻¹ s⁻¹

Request: # iterate: 90 (antibody, human IgG1, V domains shown) VH: EVQLVESGGGLVQPGGSLRLSCAASGYTFTFYGMNWVRQAPGKGLEWVGWINTYTGEPTYAADFKRRFTFSLDTSKSTAYLQMNSLRAEDTAVYYCAKYPDYYGSSHWYFDVWGQGTLVTVSS VL: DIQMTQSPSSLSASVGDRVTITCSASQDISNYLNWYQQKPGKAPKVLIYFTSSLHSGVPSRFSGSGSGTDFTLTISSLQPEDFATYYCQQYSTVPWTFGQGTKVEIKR
Result: 645000 M⁻¹ s⁻¹

Request: Also check bevacizumab variant corresponding to SEQ ID NO:82 (antibody, V domains shown) VH: EVQLVESGGGLVQPGGSLRLSCAASGYTFTFYGMNWVRQAPGKGLEWVGWINTYTGEPTYAADFKRRFTFSLDTSKSTAYLQMNSLRAEDTAVYYCAKYPDYDGGSHWYFDVWGQGTLVTVSS VL: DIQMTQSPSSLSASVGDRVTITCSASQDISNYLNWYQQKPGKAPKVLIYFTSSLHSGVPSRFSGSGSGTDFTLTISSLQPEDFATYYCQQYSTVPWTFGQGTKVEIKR
Result: 2.08e+06 M⁻¹ s⁻¹

Request: Now the same for 85 (antibody, human IgG1, V domains shown) VH: EVQLVESGGGLVQPGGSLRLSCAASGYTFTFYGMNWVRQAPGKGLEWVGWINTYTGEPTYAADFKRRFTFSLDTSKSTAYLQMNSLRAEDTAVYYCAKYPEYEGSSHWYFDVWGQGTLVTVSS VL: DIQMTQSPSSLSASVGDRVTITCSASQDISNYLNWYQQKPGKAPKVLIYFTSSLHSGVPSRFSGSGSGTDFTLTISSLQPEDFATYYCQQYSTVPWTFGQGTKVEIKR
Result: 1.25e+06 M⁻¹ s⁻¹

Request: Try the binder 86 (antibody, human IgG1, V domains shown) VH: EVQLVESGGGLVQPGGSLRLSCAASGYTFTFYGMNWVRQAPGKGLEWVGWINTYTGEPTYAADFKRRFTFSLDTSKSTAYLQMNSLRAEDTAVYYCAKYPDYEGSSHWYFDVWGQGTLVTVSS VL: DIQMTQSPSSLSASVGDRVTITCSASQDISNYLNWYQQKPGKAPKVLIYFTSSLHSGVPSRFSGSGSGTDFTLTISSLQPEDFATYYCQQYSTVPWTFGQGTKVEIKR
Result: 1.33e+06 M⁻¹ s⁻¹

Request: Another binder to look at: 83 (antibody, human IgG1, V domains shown) VH: EVQLVESGGGLVQPGGSLRLSCAASGYTFTFYGMNWVRQAPGKGLEWVGWINTYTGEPTYAADFKRRFTFSLDTSKSTAYLQMNSLRAEDTAVYYCAKYPPYDGGSHWYFDVWGQGTLVTVSS VL: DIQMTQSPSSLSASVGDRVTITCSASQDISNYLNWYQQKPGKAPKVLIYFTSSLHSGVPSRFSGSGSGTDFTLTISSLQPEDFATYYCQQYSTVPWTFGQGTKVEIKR
Result: 1.88e+06 M⁻¹ s⁻¹
